- target-desc: Transcriptional enhancer factor TEF-1 (Homo sapiens)
- Sequence (P28347 whole entry): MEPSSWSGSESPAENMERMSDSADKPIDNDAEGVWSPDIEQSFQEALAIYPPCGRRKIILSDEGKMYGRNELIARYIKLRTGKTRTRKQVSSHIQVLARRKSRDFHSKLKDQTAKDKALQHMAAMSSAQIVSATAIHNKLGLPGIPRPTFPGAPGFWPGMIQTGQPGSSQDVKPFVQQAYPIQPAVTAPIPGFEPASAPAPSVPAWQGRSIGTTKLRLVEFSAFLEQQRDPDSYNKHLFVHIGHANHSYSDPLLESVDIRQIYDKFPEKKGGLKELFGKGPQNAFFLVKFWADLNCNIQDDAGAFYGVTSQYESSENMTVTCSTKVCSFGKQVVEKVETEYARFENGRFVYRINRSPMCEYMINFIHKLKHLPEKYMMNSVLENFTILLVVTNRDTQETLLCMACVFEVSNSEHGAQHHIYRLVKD
- procedure-summary: Inhibition of NL-tagged YAP (unknown origin) interaction with myc-tagged human TEAD1 preincubated for 1 hr followed by NL-tagged YAP addition by NanoGlo assay
readout-label: pIC50
In simple prose, pIC50 is minus the logarithm base ten of a concentration in moles per litre.

[ask] I'd like to know its pIC50. The compound in question is "Cc1ccc2c(c1)c1c3n2CCN(C[C@H](O)CN2CCN(C(=O)c4ccco4)CC2)[C@@H]3CCC1"
[reply] 4.32

FYI, the data here is from BindingDB's records for doi:10.1021/acs.jmedchem.8b01402.
